Numbers sourced from paper PMC12299890.

test: Serum concentration and pharmacokinetics of SCI after oral gavage in Wistar rats
Format: in vivo, Wistar rat
condition: male, Wistar, rat, serum, po, 10 mg/kg, Rat No 5; oral 10 mg/kg
attribute measured: Tmax (h)

> print(dat)
                                   compound  value.measured
1  O[C@H]1[C@H](O)[C@@H](O)[C@H](O)[C@@H](O)[C@@H]1O [SCI, scyllo-inositol]               4

* * *

test: Serum concentration and pharmacokinetics of SCI after oral gavage in Wistar rats
Type: in vivo, Wistar rat
condition: male, Wistar, rat, serum, po, 10 mg/kg, Rat No 5; oral 10 mg/kg
attribute measured: AUC(0-t) (ng·h/mL)

> print(dat)
                                   compound  value.measured
1  O[C@H]1[C@H](O)[C@@H](O)[C@H](O)[C@@H](O)[C@@H]1O [SCI, scyllo-inositol]           25300

* * *

test: Serum concentration and pharmacokinetics of SCI after oral gavage in Wistar rats
Format: in vivo, Wistar rat
condition: male, Wistar, rat, serum, po, 10 mg/kg, Rat No 1; oral 10 mg/kg
attribute measured: AUC(0-t) (ng·h/mL)

> print(dat)
                               smiles.entry  attribute.measured  unit.info  value.measured
1  O[C@H]1[C@H](O)[C@@H](O)[C@H](O)[C@@H](O)[C@@H]1O            AUC(0-t)    ng·h/mL           40800

* * *

test: Serum concentration and pharmacokinetics of SCI after oral gavage in Wistar rats
Type: in vivo, Wistar rat
condition: male, Wistar, rat, serum, po, 10 mg/kg, Rat No 5; serum; oral 10 mg/kg; read-out: MRT (mean residence time)
attribute measured: MRT

> print(dat)
                                   compound  value.measured
1  O[C@H]1[C@H](O)[C@@H](O)[C@H](O)[C@@H](O)[C@@H]1O [SCI, scyllo-inositol]          6.21 h

* * *

test: Serum concentration and pharmacokinetics of SCI after oral gavage in Wistar rats
Format: in vivo, Wistar rat
condition: male, Wistar, rat, serum, po, 10 mg/kg, Concentration of SCI in serum, Rat No. 1; time 0.5 h; oral 10 mg/kg
attribute measured: concentration at 0.5 h

> print(dat)
                               smiles.entry  value.measured
1  O[C@H]1[C@H](O)[C@@H](O)[C@H](O)[C@@H](O)[C@@H]1O      1000 ng/mL

* * *

test: Serum concentration and pharmacokinetics of SCI after oral gavage in Wistar rats
Format: in vivo, Wistar rat
condition: male, Wistar, rat, serum, oral, 10 mg/kg, Mean concentration of SCI in serum, at the point of administration (0 min); rats 1–3
attribute measured: concentration at 0 min (ng/mL)

> print(dat)
                               smiles.entry  value.measured
1  O[C@H]1[C@H](O)[C@@H](O)[C@H](O)[C@@H](O)[C@@H]1O               0

* * *

test: Serum concentration and pharmacokinetics of SCI after oral gavage in Wistar rats
Assay type: in vivo, Wistar rat
condition: male, Wistar, rat, serum, po, 10 mg/kg, Concentration of SCI in serum, Rat No. 5; time 4 h; oral 10 mg/kg
attribute measured: concentration at 4 h (µg/mL)

> print(dat)
                                   compound    attribute.measured  value.measured
1  O[C@H]1[C@H](O)[C@@H](O)[C@H](O)[C@@H](O)[C@@H]1O [SCI, scyllo-inositol]  concentration at 4 h             6.1

* * *

test: Serum concentration and pharmacokinetics of SCI after oral gavage in Wistar rats
Assay type: in vivo, Wistar rat
condition: male, Wistar, rat, serum, po, 10 mg/kg, Rat No 5; serum; oral 10 mg/kg; read-out: T0.5e (elimination half-life) (converted)
attribute measured: half-life (h)

> print(dat)
                               smiles.entry  unit.info  value.measured
1  O[C@H]1[C@H](O)[C@@H](O)[C@H](O)[C@@H](O)[C@@H]1O          h            4.31

* * *

test: Serum concentration and pharmacokinetics of SCI after oral gavage in Wistar rats
Type: in vivo, Wistar rat
condition: male, Wistar, rat, serum, po, 10 mg/kg, Rat No 2; oral 10 mg/kg
attribute measured: Tmax (h)

> print(dat)
                               smiles.entry  value.measured
1  O[C@H]1[C@H](O)[C@@H](O)[C@H](O)[C@@H](O)[C@@H]1O             1.5

* * *

test: Serum concentration and pharmacokinetics of SCI after oral gavage in Wistar rats
Type: in vivo, Wistar rat
condition: male, Wistar, rat, serum, po, 10 mg/kg, Rat No 2; serum; oral 10 mg/kg; read-out: MRT (mean residence time)
attribute measured: MRT (h)

> print(dat)
                               smiles.entry  value.measured
1  O[C@H]1[C@H](O)[C@@H](O)[C@H](O)[C@@H](O)[C@@H]1O            72.1

* * *

test: Serum concentration and pharmacokinetics of SCI after oral gavage in Wistar rats
Type: in vivo, Wistar rat
condition: male, Wistar, rat, serum, po, 10 mg/kg, Mean concentration of SCI in serum, 1 h after oral 10 mg/kg; mean of rats 1–3
attribute measured: concentration at 1 h (ng/mL)

> print(dat)
                               smiles.entry    attribute.measured  unit.info  value.measured
1  O[C@H]1[C@H](O)[C@@H](O)[C@H](O)[C@@H](O)[C@@H]1O  concentration at 1 h      ng/mL            4670

* * *

test: Serum concentration and pharmacokinetics of SCI after oral gavage in Wistar rats
Assay type: in vivo, Wistar rat
condition: male, Wistar, rat, serum, po, 10 mg/kg, Rat No 3; serum; oral 10 mg/kg; read-out: K (elimination rate constant) (converted)
attribute measured: k el

> print(dat)
                               smiles.entry  attribute.measured  value.measured
1  O[C@H]1[C@H](O)[C@@H](O)[C@H](O)[C@@H](O)[C@@H]1O                k el    7.67e-06 s⁻¹

* * *

test: Serum concentration and pharmacokinetics of SCI after oral gavage in Wistar rats
Format: in vivo, Wistar rat
condition: male, Wistar, rat, serum, po, 10 mg/kg, mean serum profile of six rats; oral 3.92 mg SCI (10 mg/kg)
attribute measured: Tmax

> print(dat)
                               smiles.entry  value.measured
1  O[C@H]1[C@H](O)[C@@H](O)[C@H](O)[C@@H](O)[C@@H]1O          ~1.5 h

* * *

test: Serum concentration and pharmacokinetics of SCI after oral gavage in Wistar rats
Format: in vivo, Wistar rat
condition: male, Wistar, rat, serum, po, 10 mg/kg, Concentration of SCI in serum, Rat No. 6; time 4 h; oral 10 mg/kg
attribute measured: concentration at 4 h

> print(dat)
                               smiles.entry    attribute.measured  value.measured
1  O[C@H]1[C@H](O)[C@@H](O)[C@H](O)[C@@H](O)[C@@H]1O  concentration at 4 h      3600 ng/mL

* * *

test: Serum concentration and pharmacokinetics of SCI after oral gavage in Wistar rats
Type: in vivo, Wistar rat
condition: male, Wistar, rat, serum, po, 10 mg/kg, Mean of rats 4–6 ± SEM; serum; oral 10 mg/kg; read-out: T0.5e (elimination half-life) (converted)
attribute measured: half-life (h)

> print(dat)
                               smiles.entry  attribute.measured  unit.info  value.measured
1  O[C@H]1[C@H](O)[C@@H](O)[C@H](O)[C@@H](O)[C@@H]1O           half-life          h             2.5

* * *

test: Serum concentration and pharmacokinetics of SCI after oral gavage in Wistar rats
Type: in vivo, Wistar rat
condition: male, Wistar, rat, serum, po, 10 mg/kg, Mean of rats 1–3 ± SEM; serum; oral 10 mg/kg; read-out: MRT (mean residence time)
attribute measured: MRT

> print(dat)
                                   molecule  value.measured
1  O[C@H]1[C@H](O)[C@@H](O)[C@H](O)[C@@H](O)[C@@H]1O [SCI, scyllo-inositol]          36.2 h

* * *

test: Serum concentration and pharmacokinetics of SCI after oral gavage in Wistar rats
Type: in vivo, Wistar rat
condition: male, Wistar, rat, serum, po, 10 mg/kg, Mean concentration of SCI in serum, 8 h after oral 10 mg/kg; mean of rats 4–6
Description: All procedures were performed according to the Local Ethical Committee of Experiments on Animals guidelines in Olsztyn, Poland. The experiment was conducted in the same way as described by Antonowski et al.. […] The analysis is described in detail by Antonowski and co-workers. […] Next, samples were analyzed using the high-resolution gas chromatography method. […] Finally, scyllo-inositol was quantified by using a standard. The PK parameters were calculated using PK Solver. […]
attribute measured: concentration at 8 h (ng/mL)

> print(dat)
                                   compound    attribute.measured  value.measured
1  O[C@H]1[C@H](O)[C@@H](O)[C@H](O)[C@@H](O)[C@@H]1O [SCI, scyllo-inositol]  concentration at 8 h             330
